test: Pharmacokinetic interaction study, oral administration alone or in combination in rats; format: in vivo, rat; conditions: rat, plasma, po, 50 mg/kg, PPQ 50 mg/kg oral alone (control), rats
observable: CL/F (mL/min/kg)
State the answer as a number, implicitly in mL/min/kg.

State the recorded CL/F for this entry: Clc1ccc2c(N3CCN(CCCN4CCN(c5ccnc6cc(Cl)ccc56)CC4)CC3)ccnc2c1 [PPQ, piperaquine] 26.7

====

assay: Pharmacokinetic interaction study, oral administration alone or in combination in rats; assay type: in vivo, rat; conditions: rat, plasma, po, 10 mg/kg, LUME 10 mg/kg oral alone (control), rats
observable: Cmax
A complete answer gives the number and then names the unit.

Consider the compound shown here: CCCCN(CCCC)CC(O)c1cc(Cl)cc2c1-c1ccc(Cl)cc1/C2=C/c1ccc(Cl)cc1 (stereo not shown) [LUME, lumefantrine] What is its recorded Cmax? 1.81 µg/mL

These data points were gathered from paper PMC4658560.
